This collection of values is drawn from PubChem BioAssay (NCI).

# System: HCT-116 colon
# Protocol summary: NCI-60 one-dose screen, 48 h (100 = growth as untreated, 0 = no growth, -100 = all killed)
# Condition info: 10 µM unless noted
The panel holds about 83,000 compounds, 20% with a hit somewhere; the sample as a whole holds those more often.
Parameter: growth (%)
Provide the reading as a plain figure in %.

Q: Need growth, item `CCc1c(Nc2ccc(C)cc2)nc(N)[nH]c1=O`
Ans: 98.6

Q: And then `COc1ccc(CNC(=O)COc2ccc(/C=N/Nc3nc4ccccc4s3)cc2)cc1` , what is it?
Ans: 10.6

Q: And then `Cc1c(C(=O)NO)sc2ncnc(Nc3ccc(NC(=S)Nc4ccccc4)cc3)c12` , what is it?
Ans: 105

Q: And then `COc1ccc(C(=O)/C=C/c2cn(Cc3ccc(Cl)cc3)c3ccccc23)cc1` , what is it?
Ans: -77.5

Q: And then `CCN(CC)S(=O)(=O)c1cccc([N+](=O)[O-])c1` , what is it?
Ans: 80.7

Q: And then `COc1cc2nc(-c3ccc(C(F)(F)F)cc3)cc(OCCN3CCCC3)c2cc1OC` , what is it?
Ans: 67.3

Q: And then `COc1ccc(-c2nc(SCCC(C)C)nc(N/N=C(/C)c3ccc(C)cc3)c2C#N)cc1` , what is it?
Ans: 93.2

Q: And then `c1cnc2nc3c(cc2c1)oc1ccccc13` , what is it?
Ans: 101

Q: And then `COc1ccc(C(=O)c2cc3c(N)c(C(=O)Nc4cccc(Cl)c4)sc3nc2C)cc1` , what is it?
Ans: 14.9

Q: And then `COc1cc2nc(-c3ccc(-c4nn[nH]n4)cc3)[nH]c(=O)c2cc1OC` , what is it?
Ans: 104

* * *

# Test system: COLO 205 colon
# Protocol summary: NCI-60 one-dose screen, 48 h
# Condition info: 10 µM unless noted
About 83,000 compounds went through this panel and 20% of them were active in at least one assay; those are over-represented in the sample as a whole. Activity calls are given as the source filed them. The calls were made as follows: active = growth percent below 10; inactive = the rest.
The reply should name one outcome from active, inactive

Q: Could you please tell me the result logged for `[2H]C1([2H])NC([2H])([2H])C([2H])([2H])N(c2ccc(Nc3ncc4cc(C(=O)N(C)C)n(C5CCCC5)c4n3)nc2)C1([2H])[2H]` in this assay?
Ans: inactive

Q: And then CCN1C(=O)N(CC)C2C1NN=c1s/c(=C3\C(=O)Nc4ccccc43)c(=O)n12 (centres undefined) , what is it?
Ans: active

Q: And then `COc1ccc(C(=O)c2cc3c(N)c(C(=O)Nc4cccc(Cl)c4C)sc3nc2C)cc1` , what is it?
Ans: active

Q: And then `COc1ccc(Cn2nc(-c3cc(OC)c(OC)c(OC)c3)c3c2CCc2cnoc2-3)cc1OC` , what is it?
Ans: inactive

Q: And then `COc1cc(-c2cc(=O)oc3cc(O)ccc23)cc(OC)c1OC` , what is it?
Ans: inactive

Q: And then `COc1ccc(C(=O)c2cc3c(N)c(C(=O)Nc4cccc5ccccc45)sc3nc2C)cc1` , what is it?
Ans: active

Q: And then `O=S(=O)(NCCNc1nccc(-c2c(-c3ccc(F)c(O)c3)nc3occn23)n1)c1ccccc1` , what is it?
Ans: inactive

Q: And then `CC(C)CCSc1nc(NNC(N)=O)c(C#N)c(-c2ccccc2)n1` , what is it?
Ans: inactive

Q: And then `C[C@]12C[C@H]1CC[C@]1(C)[C@@H]2CC[C@@]23C[C@H](CC[C@H]21)[C@@](O)(CO)C3` , what is it?
Ans: inactive

Q: And then `O=S(=O)(c1ccc(N/N=C\c2ccccc2)cc1)c1ccc(N/N=C/c2ccccc2)cc1` , what is it?
Ans: inactive

Q: And then `CC(=O)c1c(-c2ccc(OC(F)(F)F)cc2)nc2ccccn12` , what is it?
Ans: inactive

Q: And then `Clc1nc(Nc2ccccc2)nc(Nc2ccccc2)n1` , what is it?
Ans: inactive

Q: And then `CC(=O)[C@@H]1CC[C@]2(C(N)=O)CC[C@]3(C)[C@H](CC[C@@H]4[C@@]5(C)CCC(=O)C(C)(C)[C@@H]5CC[C@]43C)[C@@H]12` , what is it?
Ans: inactive

Q: And then `Fc1ccc(-n2cc(COc3ncnc4sc5c(c34)CCCC5)nn2)cc1Cl` , what is it?
Ans: inactive

Q: And then `c1ccc2c(-c3c4ccsc4cc4[nH]c5ccccc5c34)c[nH]c2c1` , what is it?
Ans: inactive

Q: And then `CCCCCOc1ccc(/C=N/Nc2cc(C)nc3ccc(Br)cc23)cc1` , what is it?
Ans: active

Q: And then `Cn1c(COC(=O)NCCc2ccccn2)nc2c(N3CCOCC3)nc(Cl)nc21` , what is it?
Ans: active

Q: And then `COc1cc2nc(-c3ccc(C(F)(F)F)cc3)cc(OCCN3CCC(O)CC3)c2cc1OC` , what is it?
Ans: inactive

Q: And then `CCOC(=O)C1=C(C)NC(C)=C(C(=O)OCC)C1c1cc(Br)c(O)c(OC)c1` , what is it?
Ans: inactive

Q: And then Fc1ccc(C2CC(c3cccc(Nc4ccncc4)c3)=NN2c2cc(Cl)cc(Cl)c2)cc1 (centres undefined) , what is it?
Ans: active

Q: And then `COc1cc(/C=C2\C(=O)N(Cc3ccc(Cl)cc3)c3ccccc32)cc(OC)c1OC` , what is it?
Ans: inactive

Q: And then `CC1(C)CCCN1CCCN1c2ccccc2Sc2ccc(Cl)cc21` , what is it?
Ans: inactive

Q: And then CC(=O)N1N=C(c2cccc(Nc3ccncc3)c2)CC1c1ccccc1 (centres undefined) , what is it?
Ans: inactive

Q: And then `C#CCNC(=O)[C@H](Cc1ccccc1)NC(=O)[C@]12CC[C@@H](C(=C)C)[C@@H]1[C@H]1CC[C@@H]3[C@@]4(C)Cc5c([nH]c6ccccc56)C(C)(C)[C@@H]4CC[C@@]3(C)[C@]1(C)CC2` , what is it?
Ans: inactive

Q: And then `O=C(Nc1nc2ccc(S(=O)(=O)Nc3ccc(C4(C(F)(F)F)CC4)cc3)cc2[nH]1)c1cnccn1` , what is it?
Ans: inactive

Q: And then `C[C@]12CCc3nc(Nc4cccc(O)c4)sc3C1=CC[C@@H]1[C@@H]2CC[C@]2(C)/C(=N\NC(N)=S)CC[C@@H]12` , what is it?
Ans: inactive

Q: And then `Cn1c(COC(=O)NCCN2CCOCC2)nc2c(N3CCOCC3)nc(-c3ccccc3)nc21` , what is it?
Ans: active

Q: And then `CC[C@H](C)[C@@H]1NC(=O)[C@H](Cc2ccc(O)cc2)N(C)C(=O)[C@H](Cc2ccccc2)NC(=O)CN(C)C(=O)[C@@H]2CCCN2C(=O)[C@@H](Cc2ccccc2)N(C)C(=O)[C@H](CC(C)C)NC1=O` , what is it?
Ans: active

Q: And then `CC[C@@]12C=CCN3CC[C@]4(c5cc(NC(=O)COc6cc(OCC(=O)Nc7cc8c(cc7OC)N(C)[C@H]7[C@@](O)(C(=O)OC)[C@H](OC(C)=O)[C@]9(CC)C=CCN%10CC[C@]87[C@@H]%109)cc7oc(-c8ccccc8)cc(=O)c67)c(OC)cc5N(C)[C@@H]4[C@](O)(C(=O)OC)[C@H]1OC(C)=O)[C@H]32` , what is it?
Ans: inactive

Q: And then `CC1(C)CN(Cc2ccccc2)CCN1Cc1ccccc1` , what is it?
Ans: inactive

Q: And then `CC1(C)NCCC[C@]2(C)[C@H]3CC=C4[C@@H]5C[C@@](C)(CO)CC[C@]5(C)CC[C@@]4(C)[C@]3(C)CC[C@@H]12` , what is it?
Ans: active

Q: And then `O=C1/C(=C\c2cn(Cc3ccccc3)c3ccc(Br)cc23)c2ccccc2N1c1c(Cl)cccc1Cl` , what is it?
Ans: inactive

Q: And then COc1cccc(C(Cc2ccccc2)Nc2ccccc2)c1OC (centres undefined) , what is it?
Ans: inactive

Q: And then `Cc1ccc(C(c2c(O)c3cc(Br)ccc3[nH]c2=O)c2c(O)c3cc(Br)ccc3[nH]c2=O)cc1` , what is it?
Ans: inactive
